- study_system: human IKKβ (Homo sapiens)
- Sequence (O14920 1-756): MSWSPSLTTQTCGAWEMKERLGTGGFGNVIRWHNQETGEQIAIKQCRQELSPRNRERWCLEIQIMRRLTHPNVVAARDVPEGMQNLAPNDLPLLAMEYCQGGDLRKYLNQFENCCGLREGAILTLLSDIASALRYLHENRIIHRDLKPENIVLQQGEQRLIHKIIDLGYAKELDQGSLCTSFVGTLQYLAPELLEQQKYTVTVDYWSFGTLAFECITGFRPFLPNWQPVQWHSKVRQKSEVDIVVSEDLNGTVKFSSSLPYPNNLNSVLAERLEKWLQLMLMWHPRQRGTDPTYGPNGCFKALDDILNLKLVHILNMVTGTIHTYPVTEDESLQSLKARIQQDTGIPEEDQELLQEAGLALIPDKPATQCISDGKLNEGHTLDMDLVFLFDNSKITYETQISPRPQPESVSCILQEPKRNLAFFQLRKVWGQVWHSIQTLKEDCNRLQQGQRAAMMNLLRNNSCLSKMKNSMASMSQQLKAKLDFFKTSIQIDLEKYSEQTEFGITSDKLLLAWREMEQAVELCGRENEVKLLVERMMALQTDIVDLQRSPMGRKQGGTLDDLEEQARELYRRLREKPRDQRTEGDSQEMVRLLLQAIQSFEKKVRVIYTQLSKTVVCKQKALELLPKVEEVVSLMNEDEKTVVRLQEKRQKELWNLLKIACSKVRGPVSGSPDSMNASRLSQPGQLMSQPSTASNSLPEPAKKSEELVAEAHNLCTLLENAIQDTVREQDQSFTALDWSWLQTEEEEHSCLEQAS
Assignment: determine reported IC50 for the given molecules.

**Q:** Tell me measured IC50 for CCCc1cc(N2CCC(NCC(O)c3ccc(-c4nccn4C)cc3)CC2)nc2sc(C(N)=O)c(N)c12 (stereo not drawn) please.
**A:** < 1000 nM

**Q:** Tell me measured IC50 for CCCc1cc(N2CCC(NCc3nnn[nH]3)CC2)nc2sc(C(N)=O)c(N)c12 please.
**A:** < 1000 nM

**Q:** Tell me measured IC50 for CNC(=O)c1cc(N2CCC(N)CC2)nc2sc(C(N)=O)c(N)c12 please.
**A:** < 1000 nM
